Tested on: DU-145 prostate cancer
test-details: MTT survival assay
Format: cell-based, human
assay-setup: read-out: Cisplatin IC50, combination: Elemene at IC20 of the cell line
property-label: pIC50
FYI, pIC50 means -log10 of a concentration in mol per litre.

Incoming: Look up pIC50: N.N.[Cl][Pt][Cl] [Cisplatin]
Outgoing: 3.42

* * *

Tested on: human glioma cells
test-details: MTT assay, elemene analogs
Type: cell-based
assay-setup: Homo sapiens, Glioma cell; 72 hr
property-label: IC50

| compound | property-label | reported |
| --- | --- | --- |
| C=C[C@]1(C)CC[C@@H](C(C)=O)C[C@H]1C(=C)C [Lr-3] | IC50 | > 200 µg/mL |
| C=C[C@]1(C)CC[C@@H]([C@](C)(O)CO)C[C@H]1C(=C)C [Lr-2] | IC50 | 90.9 µg/mL |
| C=C(C)C1=C(C)C(=O)C[C@@H](C(=C)C)C1 [Lr-6] | IC50 | > 200 µg/mL |
| C=C(C)[C@@H]1CC=C(C)C(=O)C1 [Lr-10] | IC50 | > 200 µg/mL |

Incoming: Can you look up the measured IC50 of C=C(C)[C@H]1CC=C(C)C(=O)C1 [Lr-9] for me?
Outgoing: > 200 µg/mL
